- Tested on: GB2005 E. coli cells
- protocol-details: ssDNA recombination assay
- Format: cell-based
- measurement-context: % of WT colonies per 10^8 viable cells
readout-label: SS (%): ssDNA recombination compared to WT

L91D λexo (protein, left off: His6, N-terminal, kept) MTPDIILQRTGIDVRAVEQGDDAWHKLRLGVITASEVHNVIAKPRSGKKWPDMKMSYFHTLLAEVCTGVAPEVNAKALAWGKQYENDARTDFEFTSGVNVTESPIIYRDESMRTACSPDGLCSDGNGLELKCPFTSRDFMKFRLGGFEAIKSAYMAQVQYSMWVTRKNAWYFANYDPRMKREGLHYVVIERDEKYMASFDEIVPEFIEKMDEALAEIGFVFGEQWR | 110%
K132A Redβ: Redβ variant, non-interfacial residue Lys-132 of the NTD, control (protein) MSTALATLAGKLAERVGMDSVDPQELITTLRQTAFKGDASDAQFIALLIVANQYGLNPWTKEIYAFPDKQNGIVPVVGVDGWSRIINENQQFDGMDFEQDNESCTCRIYRKDRNHPICVTEWMDECRREPFATREGREITGPWQSHPKRMLRHKAMIQCARLAFGFAGIYDKDEAERIVENTAYTAERQPERDITPVNDETMQEINTLLIALDKTWDDDLLPLCSQIFRRDIRASSELTQAEAVKALGFLKQKAAEQKVAA | 20%

Now for a further molecule.
Please fill in: SS (%): ssDNA recombination compared to WT reported for L223A Redβ: Redβ variant (protein) MSTALATLAGKLAERVGMDSVDPQELITTLRQTAFKGDASDAQFIALLIVANQYGLNPWTKEIYAFPDKQNGIVPVVGVDGWSRIINENQQFDGMDFEQDNESCTCRIYRKDRNHPICVTEWMDECRREPFKTREGREITGPWQSHPKRMLRHKAMIQCARLAFGFAGIYDKDEAERIVENTAYTAERQPERDITPVNDETMQEINTLLIALDKTWDDDLLPACSQIFRRDIRASSELTQAEAVKALGFLKQKAAEQKVAA = 3.5%

These data points were gathered from paper PMC6393309.
